Recorded values, source the supplement of paper PMC9170038.

# Test system: MS2 coat protein
# assaySummary: apparent KD of MS2 coat protein, switch ON state; designed switch direction (-1 OFF switch, 1 ON switch): 1; higher = weaker reporter binding
# measurementConditions: FMN input: 0 or 200 uM; Eterna round: R93 (includes R88 designs)
Use condition met when the recorded apparent KD of MS2 coat protein is no lower than 20 nM; use condition not met when it is lower.

Previously resolved entries follow.
{"columns": ["seqText", "assignedClass"],
 "data": [
  ["UAAAUACAUGAGGAUCACCCAUGUCAAGAGUAUUAAGGAUAUGAACCAGGGAACUGGCAGUCAGAAGGUGAGACUC [Ququeddi]", "condition met"],
  ["GAAAAACAUGAGGAUCACCCAUGUGGAAAUAUGGGAGGAUAUACUAAGACGAAAGUCGAUGUAGAAGGCCUAAAAG [Same State 1.4e (Mat - Mod of Eli - )]", "condition met"],
  ["GAAAAACAUGAGGAUCACCCAUGUGAAAACUUGGGAGGAUAUACAAAGACGAAAGUCGAAGUAGAAGGCCUAAAAG [Same State 1.4k (Mat - Mod of Eli - )]", "condition not met"],
  ["AGAAAACAUGAGGAUCACCCAUGUAGAAAUAUGGGAGGAUAUACAAGGACGAAAGUCAAGGUAGAAGGCCUAAAGA [Mat - Same State 1 - Meechl mod - D127]", "condition met"],
  ["GAGAGACAUGAGGAUCACCCAUGUAGGAUUAUGGGAGGAUAUACAAAGACGAGAGUCAGAGUAGAAGGCCUAGGAU [salish99-ss1-138(!)]", "condition met"]
]}

Attention now turns to another entry.
**Query** Is apparent KD of MS2 coat protein for AAAAAACAUGAGGAUCACCCAUGUCAAAAGACAUGAGGAUAUGUACAGACUUCGGUCUGUACAGAAGGCAUGAAAA [SS1 - 1011] at or above 20 nM?
**Result** condition met

----------
# Tested on: K4 kissing-loop RNA reporter;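 note: bound reporter read as fluorescence of individual clusters on recovered sequencing chips by microscopy, with normalized cluster intensities fitted with a binding model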
# assaySummary: apparent KD of K4 kissing-loop reporter; higher = weaker reporter binding
# measurementConditions: Eterna round: R107; input ligand: arginine 13.2 mM
Use criterion met when the recorded apparent KD of K4 kissing-loop reporter is no lower than 200 nM; use criterion not met when it is lower.

Previously resolved entries follow.
{"columns": ["seqText", "targetSystem", "assignedClass"],
 "data": [
  ["GCGCGUCAUGUCAGCGGUGACACUGUCGAUACCAGUGCCGAAAGGCGCCCUUGGCAGCGACGUGCUGGAGUGAUGUUCCAGCGUU [#2 Exclusion - Theophylline A Attempt #30 (HarryS)]", "K4 kissing-loop RNA reporter", "criterion not met"],
  ["UUUUUAAUCGCAGAUACCAGUCCAGAAUGAAUACUAUAGUGAUGUUAUAAUAAAGGGAAGGACCCUUGGCAGCUGUAAUAUAUUU [AstrosSsTheB#5]", "K4 kissing-loop RNA reporter", "criterion met"],
  ["CGAUUCAUGGCGGCCGCCACUCGCGAAGCUCCCGUUACGAUGUCCGCAACAGUGAUGUUGUUGCCGAGGACCGGGCCGAGAUCCA [theeternabot_exclusion_KL_Trp_B_31]", "K4 kissing-loop RNA reporter", "criterion not met"],
  ["GGUUAAUAGGAGGAUACCAGUACGAAUAAAGUACAUUAAUAGUAGAGUGAUGUUCUAAAGUACCCUUGGCAGCUUAGAGUUAGUU [#19 K4 Theophylline B Exclusion]", "K4 kissing-loop RNA reporter", "criterion met"]
]}

Attention now turns to another entry.
**Query** Is apparent KD of K4 kissing-loop reporter for CAUAGGAAACUAUGUAUCUCUCCGACUGAAGGAGCGCGUGAAAACGCAGGUAGGUCGCAGAAUUUAACGGAGAGUGAUGUUCUCU [Ex Arginine A K4 10] at or above 200 nM?
**Result** criterion met

----------
# System: MS2 coat protein
# assaySummary: apparent KD of MS2 coat protein; designed switch direction (-1 OFF switch, 1 ON switch): -1; higher = weaker reporter binding
# measurementConditions: Eterna round: R95; input ligand: microRNA oligo, concentration not stated
In this section, each of the sequences is paired with its reported apparent KD of MS2 coat protein.
Give a bare numeral; the unit nM is implied.

{"columns": ["seqText", "displayUnit", "assayValue"],
 "data": [
  ["GAAGAAGAGAGAAUAGAAAACAUGAGGAUCACCCAUGUGAGAAGAUGAGGGUGUAAUAGGCUUUUUGCUCGUCUUAU (puzzle: Sensor v3, turn-off variant 1)", "nM", 94.4]
]}

**Query** Return apparent KD of MS2 coat protein for the following sequence: CCACGACAUGAGGAUCACCCAUGUCAGGAUAUCCCUCAUUGUAUGAAAAUACAAUGAGGGAGAAGGGACGUGAC [SS1 Omei 2] (puzzle: Exclusion 1)
**Result** 27.1

**Query** Return apparent KD of MS2 coat protein for the following sequence: GUCACGUAAGGAUAUCAUUAGUUGGACAUGAGGAUCACCCAUGUGAGACUAACUCCGGCGUGAGAAGGUGCGUUAA [Arorza] (puzzle: Exclusion 5)
**Result** 12

----------
# Test system: MS2 coat protein
# assaySummary: apparent KD of MS2 coat protein; higher = weaker reporter binding
# measurementConditions: Eterna round: R107; input ligand: none
quantityName: apparent KD of MS2 coat protein (nM)
Give a bare numeral; the unit nM is implied.

{"columns": ["seqText", "apparent KD of MS2 coat protein / nM"],
 "data": [
  ["GCUAGGUCUACGGCCGCCACUAGACGUGGGUAAAACAUGAGGAUCACCCAUGUGCUACGGGCGAAUAGGACCGGGUAGACCUAGC [SSTB NP+V+V2 #15 +-Same Structure]", 368],
  ["AGUAGCUGCCGAAGGAGCGCCGUGUUCCUACAUGAGGAUCACCCAUGUAGCGUUGGGUUACGGCAGGUAGGUCGCGGCGGAUAGG [Same State - Arginine B / B]", 34.3]
]}

Please look at the following sequence next.
**Query** Return apparent KD of MS2 coat protein for the following sequence: AAGGAACAUGAGGAUCACCCAUGUACCGAAGGAGCGGCAGAGAUGCCAGGUAGGUCGCGGUACUUGCCGGGUCAUUCAUGCAGAG [Arraiste]
**Result** 26.3

----------
# System: MS2 coat protein
# assaySummary: apparent KD of MS2 coat protein; designed switch direction (-1 OFF switch, 1 ON switch): -1; higher = weaker reporter binding
# measurementConditions: Eterna round: R95; input ligand: microRNA oligo, concentration not stated
In this section, each of the sequences is paired with its reported apparent KD of MS2 coat protein.
Give a bare numeral; the unit nM is implied.

# annotated cases, reported apparent KD of MS2 coat protein shown
{"columns": ["seqText", "quantityName", "displayUnit", "assayValue"],
 "data": [
  ["AAACAAGAAGGAUAUACAUUAUCGGAUCUUCCGGCAAUGCCACAUGAGGAUCACCCAUGUAGAAGGUCUAAAUU [Ralabi] (puzzle: Exclusion 2)", "apparent KD of MS2 coat protein", "nM", 12.3],
  ["AAUAGCAAGUAAGAUCCUAACAUGAGGAUCACCCAUGUGCUCGUCUUAUAAAGUACUAUCACGAAAGUGAUAGUACA [Sensor 3, v1 - 47] (puzzle: Sensor v3, turn-off variant 1)", "apparent KD of MS2 coat protein", "nM", 51.4],
  ["GUGUAACUACACGGGCUCAACAUGAGGAUCACCCAUGUCAUACACGCAAGCUCUUUGCUUGUCUUAUCUGUCCGUGA [Erriusti] (puzzle: Sensor v3, turn-off variant 1)", "apparent KD of MS2 coat protein", "nM", 16.6],
  ["GACUAAAUUUUGUUUGGUUACAUGAGGAUCACCCAUGUUGGUCUAAGAACAUGUCUUUUGUACGCUUGUCUUAUAUA [JR_SV3TOV1_Sub068] (puzzle: Sensor v3, turn-off variant 1)", "apparent KD of MS2 coat protein", "nM", 45.8]
]}

Please look at the following sequence next.
**Query** Given GAUUAUGCGAGCUUUAGGGACAUGAGGAUCACCCAUGUUCGUCUUAUUAGUCUGGGUGCACUGACAUACCUAAAUCU [JMF 93] (puzzle: Sensor v3, turn-off variant 1) , report its apparent KD of MS2 coat protein on MS2 coat protein.
**Result** 202

----------
# Tested on: MS2 coat protein
# assaySummary: apparent KD of MS2 coat protein; designed switch direction (-1 OFF switch, 1 ON switch): 1; higher = weaker reporter binding
# measurementConditions: Eterna round: R98; input ligand: FMN 200 uM
quantityName: apparent KD of MS2 coat protein (nM)
Give a bare numeral; the unit nM is implied.

**Query** Given UUUGGGAGCACAGGAUAUGGCGCCUCGGAGGCGCCAGAAGGGUGAUUCUGUUGGUGGCCACAUGAGGAUCACCCAUGUGCCUCC [Rienorarve] , report its apparent KD of MS2 coat protein on MS2 coat protein.
**Result** 19.2
